system.name: 肺炎支原体天然抗原(购自Microbix) (Mycoplasma pneumoniae)
assay.comment: indirect ELISA, antigen coated at 2 ug/ml, antibody 3.75 ng/ml
The binders listed here are annotated with their OD450 (参考630nm).
// units = OD; emit number, no label

Anti-MP-22A9mut5 (antibody, mouse IgG1, kappa, V domains shown) VH: QAYLQQSGAELVRSGASVKMSCKASGYTFTTYNMHWVKQTPGQGLEWIGYVHPGYGITYYSQKFKGKATLTADTSSSTAYMLLSSITSEDSAVYFCTRSYYGYSYWFFDVWGAGTTVTVSS VL: NIVMTQSPKSVSMSVGERVTLNCKASENVGSYVAWYQQKPDRSPKLLIHGASNRYTGVPDRFTGSGSTTDFTITISSVQAEDLADYHCGQTYNYPYTFGGGTKLEIKR: 0.814
Anti-MP-22A9mut4 (antibody, mouse IgG1, kappa, V domains shown) VH: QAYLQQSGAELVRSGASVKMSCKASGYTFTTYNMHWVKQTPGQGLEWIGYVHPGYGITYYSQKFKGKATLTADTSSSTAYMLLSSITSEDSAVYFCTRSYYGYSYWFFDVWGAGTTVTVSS VL: NIVMTQSPKSVSMSVGERVTLNCKASENVGSYVAWYQQKPDRSPKLLIHGASNRYTGVPDRFTGSGSTTDFTLTISSVQAEDLADYHCGQTYNYPYTFGGGTKLEIKR: 0.758
Anti-MP-22A9mut1 (antibody, mouse IgG1, kappa, V domains shown) VH: QAYLQQSGAELVRSGASVKMSCKASGYTFTTYNMHWVKQTPGQGLEWIGYVHPGYGITYYSQKFKGKATLTADTSSSTAYMILSSLTSEDSAVYFCTRSYYGYSYWFFDVWGAGTTVTVSS VL: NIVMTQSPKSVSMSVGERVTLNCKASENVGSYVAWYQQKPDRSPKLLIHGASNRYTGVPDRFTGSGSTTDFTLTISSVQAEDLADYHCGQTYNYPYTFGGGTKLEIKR: 0.619
Anti-MP-22A9mut6 (antibody, mouse IgG1, kappa, V domains shown) VH: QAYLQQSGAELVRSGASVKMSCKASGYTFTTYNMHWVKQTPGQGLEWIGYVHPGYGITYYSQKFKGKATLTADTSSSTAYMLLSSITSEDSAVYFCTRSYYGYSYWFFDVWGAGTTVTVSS VL: NIVMTQSPKSVSMSVGERVTLNCKASENVGSYVAWYQQKPDRSPKLLIHGASNRYTGVPDRFTGSGSTTDFTLTLSSVQAEDLADYHCGQTYNYPYTFGGGTKLEIKR: 0.627
Anti-MP-22A9mut2 (antibody, mouse IgG1, kappa, V domains shown) VH: QAYLQQSGAELVRSGASVKMSCKASGYTFTTYNMHWVKQTPGQGLEWIGYVHPGYGITYYSQKFKGKATLTADTSSSTAYMLLSSLTSEDSAVYFCTRSYYGYSYWFFDVWGAGTTVTVSS VL: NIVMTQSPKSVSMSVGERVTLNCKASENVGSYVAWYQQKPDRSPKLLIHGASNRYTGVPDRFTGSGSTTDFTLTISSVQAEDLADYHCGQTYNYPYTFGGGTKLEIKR: 0.899

Query: Reported OD450 (参考630nm), binder Anti-MP-22A9mut3 (antibody, mouse IgG1, kappa, V domains shown) VH: QAYLQQSGAELVRSGASVKMSCKASGYTFTTYNMHWVKQTPGQGLEWIGYVHPGYGITYYSQKFKGKATITADTSSSTAYMLLSSLTSEDSAVYFCTRSYYGYSYWFFDVWGAGTTVTVSS VL: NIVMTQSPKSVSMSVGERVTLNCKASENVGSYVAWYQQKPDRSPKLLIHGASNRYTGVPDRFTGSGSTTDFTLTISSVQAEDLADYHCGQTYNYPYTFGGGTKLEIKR : ____
Reply: 0.906
